settings: 353.15 K; Liquid; Manometric method
Decision: vapor or sublimation pressure beneath 10 kPa gives MET; vapor or sublimation pressure meeting or exceeding 10 kPa gives NOT MET.

Study these solved cases before continuing.
compound | category.label
NCCCN | NOT MET
NCCN | NOT MET
NCCCCN | MET
O | NOT MET

Prompt: Quick check: vapor or sublimation pressure of CC(N)CN (stereo not given) under 10 kPa?
Completion: NOT MET

---

details: 343.15 K; Liquid; Manometric method
// label = True if vapor or sublimation pressure is not less than 20 kPa, otherwise False

compound | category.label
NCCCN [1,3-propanediamine] | False

Prompt: Could you tell me if the measured vapor or sublimation pressure of CC(N)CN (stereo not given) [1,2-propanediamine] reaches 20 kPa or more?
Completion: False

Prompt: Could you tell me if the measured vapor or sublimation pressure of O [water] reaches 20 kPa or more?
Completion: True

Prompt: Could you tell me if the measured vapor or sublimation pressure of NCCN [ethane-1,2-diamine] reaches 20 kPa or more?
Completion: False

Prompt: Could you tell me if the measured vapor or sublimation pressure of NCCCCN [1,4-butanediamine] reaches 20 kPa or more?
Completion: False

---

conditions: 303.15 K; Liquid; Manometric method
Decision: vapor or sublimation pressure beneath 1 kPa gives yes (1); vapor or sublimation pressure meeting or exceeding 1 kPa gives no (0).

molecule | category.label
CC(N)CN (stereo not given) | no (0)
O | no (0)
NCCN | no (0)
NCCCCN | yes (1)

Prompt: Quick check: vapor or sublimation pressure of `NCCCN` under 1 kPa?
Completion: yes (1)

---

conditions: 333.15 K; Liquid; Manometric method
The following molecules are shown together with reported vapor or sublimation pressure values.
The response must be a number in kPa with no trailing unit.

Some solved cases for reference:
molecule | vapor or sublimation pressure, kPa
NCCN | 11.13
NCCCCN | 1.256
CC(N)CN (stereo not given) | 9.764
O | 19.82

Prompt: Value lookup for vapor or sublimation pressure; key = `NCCCN`
Completion: 4.72
